Assay summary: Oral toxicity studies in dogs
Assay type: in vivo
Test parameters: dog, in vivo, oral; read-out: no observed adverse effect level (NOAEL)
Metric name: NOAEL (mg/kg/day)
Write down the numeric answer in mg/kg/day and omit the unit.

Which NOAEL value belongs to CCc1ccc([C@@H]2O[C@H](CO)[C@@H](O)[C@H](O)[C@H]2O)cc1Cc1ccc2c(c1)OCCO2 [LIK066] ?
0.5

---

Assay summary: Clinical pharmacokinetics
Test parameters: human, in vivo; read-out: pharmacokinetic elimination half-life
Metric name: half-life

Which half-life value belongs to CCc1ccc([C@@H]2O[C@H](CO)[C@@H](O)[C@H](O)[C@H]2O)cc1Cc1ccc2c(c1)OCCO2 ?
10 to 16 h
